Read-out: CFLAR gene, CFLAR (gene 8837)
Experiment: LTEA_HepaRG_CFLAR: Life Technologies and Expression Analysis (LTEA) Assay for CFLAR gene using HepaRG (AID 2283455)
Settings: mRNA level, 48 h; actives raise or lower the signal
The source made the active and inactive calls. How the source made its calls: active means hit-call score of the fitted dose curve at least 0.9, where 1 is the maximum; inactive means score below 0.9.
Respond with a class label; see active, inactive

Past entries and their recorded results:
Problem: Record lookup: outcome of this test for COc1nn(CSP(=S)(OC)OC)c(=O)s1 ?
Solution: inactive

Problem: Record lookup: outcome of this test for O=C(O)C(F)(F)C(F)(F)C(F)(F)C(F)(F)C(F)(F)C(F)(F)C(F)(F)F ?
Solution: inactive

Problem: Record lookup: outcome of this test for COP(=S)(OC)Oc1ccc(SC)c(C)c1 ?
Solution: inactive

Problem: Record lookup: outcome of this test for CCC(C)(C)C(=O)OC1=C(c2ccc(Cl)cc2Cl)C(=O)OC12CCCCC2 ?
Solution: inactive

New cases:
Problem: Record lookup: outcome of this test for CCc1ccc(C(=O)NN(C(=O)c2cc(C)cc(C)c2)C(C)(C)C)cc1 ?
Solution: inactive

Problem: Record lookup: outcome of this test for CN1CSC(=S)N(C)C1 ?
Solution: inactive

Problem: Record lookup: outcome of this test for CCCN(CCOc1c(Cl)cc(Cl)cc1Cl)C(=O)n1ccnc1 ?
Solution: active

Problem: Record lookup: outcome of this test for CC(C)OC(=O)Nc1cccc(Cl)c1 ?
Solution: inactive

Problem: Record lookup: outcome of this test for CNC(=O)Oc1ccccc1OC(C)C ?
Solution: inactive

Problem: Record lookup: outcome of this test for C[C@H]1[C@H](c2ccc(Cl)cc2)SC(=O)N1C(=O)NC1CCCCC1 ?
Solution: inactive

Problem: Record lookup: outcome of this test for O=C(Nc1ccccc1)Nc1cnns1 ?
Solution: inactive

Problem: Record lookup: outcome of this test for Cc1[nH]c(=O)n(C(C)(C)C)c(=O)c1Cl ?
Solution: inactive

Problem: Record lookup: outcome of this test for N#CN ?
Solution: inactive

Problem: Record lookup: outcome of this test for OCCOc1ccccc1 ?
Solution: inactive

Problem: Record lookup: outcome of this test for COP(=O)(OC)OC=C(Cl)Cl ?
Solution: inactive

Problem: Record lookup: outcome of this test for CC(C)(C)C(O)C(Oc1ccc(Cl)cc1)n1cncn1 (centres undefined) ?
Solution: inactive

----------
Experiment: BSK_BE3C_SRB: Viability Assessment in the BioMAP Diversity Plus: BE3C Assay (AID 2283028);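 further: measured 24 h after chemical dosing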;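 on AC50: fitted both ways so AC50 may mark signal gain or loss versus DMSO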
Conditions: primary human bronchial epithelial cells
The source made the active and inactive calls. The calls were made as follows: active = hit-call score of the fitted dose curve at least 0.9, where 1 is the maximum; inactive = score below 0.9.
Assay Endpoint: AC50

Previously resolved entries follow.
Problem: Recorded AC50 of CCC(C)(C)C(=O)OC1=C(c2ccc(Cl)cc2Cl)C(=O)OC12CCCCC2 , please.
Solution: 31.3 µM (active)

Problem: Recorded AC50 of O=C(O)CCCOc1ccc(Cl)cc1Cl , please.
Solution: inactive

Problem: Recorded AC50 of CCC(C)Nc1c([N+](=O)[O-])cc(C(C)(C)C)cc1[N+](=O)[O-] (configuration not stated) , please.
Solution: 14.7 µM (active)

Problem: Recorded AC50 of O=[N+]([O-])/N=C1\NCCN1Cc1ccc(Cl)nc1 , please.
Solution: inactive

Problem: Recorded AC50 of COC(=O)c1ccccc1S(=O)(=O)NC(=O)N(C)c1nc(C)nc(OC)n1 , please.
Solution: inactive

Problem: Recorded AC50 of CC(C)(C)C(O)C(Oc1ccc(Cl)cc1)n1cncn1 (configuration not stated) , please.
Solution: inactive

Problem: Recorded AC50 of O=S1OCC2C(CO1)C1(Cl)C(Cl)=C(Cl)C2(Cl)C1(Cl)Cl (configuration not stated) , please.
Solution: 20.9 µM (active)

Problem: Recorded AC50 of CCOc1nc(NC)nc(NC(=O)NS(=O)(=O)c2ccccc2C(=O)OC)n1 , please.
Solution: inactive

Problem: Recorded AC50 of COP(=S)(OC)Oc1ccc(SC)c(C)c1 , please.
Solution: 23.2 µM (active)

Problem: Recorded AC50 of O=C(O)COc1ccc(Cl)cc1Cl , please.
Solution: inactive

For each of the compounds below, note its AC50.
1. Cc1cc(C)nc(NC(=O)NS(=O)(=O)c2ccccc2C(=O)OC2COC2)n1
2. CC(C)OC(=O)Nc1cccc(Cl)c1
3. COc1nn(CSP(=S)(OC)OC)c(=O)s1
4. N#CN
5. CCCN(CCOc1c(Cl)cc(Cl)cc1Cl)C(=O)n1ccnc1
6. CNC(=O)/C=C(\C)OP(=O)(OC)OC
7. COP(=S)(OC)Oc1ccc([N+](=O)[O-])cc1
8. CC[C@H](C)[C@H]1O[C@]2(C=C[C@@H]1C)C[C@@H]1C[C@@H](C/C=C(\C)[C@@H](O[C@H]3C[C@H](OC)[C@@H](O[C@H]4C[C@H](OC)[C@@H](O)[C@H](C)O4)[C@H](C)O3)[C@@H](C)/C=C/C=C3\CO[C@@H]4[C@H](O)C(C)=C[C@@H](C(=O)O1)[C@]34O)O2 (tested in a mixture with another compound)

Solution:
["inactive", "inactive", "inactive", "inactive", "28.9 µM (active)", "inactive", "inactive", "4.65 µM (active)"]

----------
Read-out: Heat shock 70 kDa protein 1 (HSPA1A), gene 3303
Assay: LTEA_HepaRG_HSPA1A: Life Technologies and Expression Analysis (LTEA) Assay for Heat shock 70 kDa protein 1 (HSPA1A) using HepaRG (AID 2283502)
Conditions: mRNA level, 48 h; actives raise or lower the signal
The source made the active and inactive calls. The calls were made as follows: active = hit-call score of the fitted dose curve at least 0.9, where 1 is the maximum; inactive = score below 0.9.
Assay Endpoint: outcome

Problem: Recorded outcome of CCOCN(C(=O)CCl)c1c(C)cccc1CC , please.
Solution: inactive

Problem: Recorded outcome of COP(=S)(OC)Oc1ccc(SC)c(C)c1 , please.
Solution: inactive

Problem: Recorded outcome of CCN(CC)C(=O)SCc1ccc(Cl)cc1 , please.
Solution: inactive

----------
Read-out: alkyl and aryl transferase (GSTA2), GSTA2 (gene 2939)
Experiment: CLD_GSTA2_24hr: CellzDirect (CLD) Gene Expression Assay for alkyl and aryl transferase (GSTA2) at 24 hours (AID 2283693)
Records with an inconclusive call do not appear. The source made the active and inactive calls. The calls were made as follows: active = hit-call score of the fitted dose curve at least 0.9, where 1 is the maximum; inconclusive = response in the unintended direction; inactive = score below 0.9.
Assay Endpoint: outcome

Previously resolved entries follow.
Problem: Recorded outcome of CNC(=O)Oc1cccc(N=CN(C)C)c1 , please.
Solution: inactive

Problem: Recorded outcome of C#CCN1C(=O)COc2cc(F)c(N3C(=O)C4=C(CCCC4)C3=O)cc21 , please.
Solution: inactive

Problem: Recorded outcome of COC(=O)c1ccccc1S(=O)(=O)NC(=O)Nc1nc(C)nc(OC)n1 , please.
Solution: inactive

Problem: Recorded outcome of CC[C@H](C)[C@H]1O[C@]2(C=C[C@@H]1C)C[C@@H]1C[C@@H](C/C=C(\C)[C@@H](O[C@H]3C[C@H](OC)[C@@H](O[C@H]4C[C@H](OC)[C@@H](O)[C@H](C)O4)[C@H](C)O3)[C@@H](C)/C=C/C=C3\CO[C@@H]4[C@H](O)C(C)=C[C@@H](C(=O)O1)[C@]34O)O2 (tested in a mixture with another compound) , please.
Solution: inactive

For each of the molecules below, note its outcome.
1. O=S(=O)(O)C(F)(F)C(F)(F)C(F)(F)C(F)(F)C(F)(F)C(F)(F)C(F)(F)C(F)(F)F
2. OCCOc1ccccc1
3. O=[N+]([O-])/N=C1\NCCN1Cc1ccc(Cl)nc1
4. Clc1ccccc1-c1nnc(-c2ccccc2Cl)nn1

Solution:
1. inactive
2. inactive
3. inactive
4. inactive

----------
Target: Bile acid receptor (Homo sapiens) (UniProt Q96RI1)
Sequence (Q96RI1 whole entry, looked up): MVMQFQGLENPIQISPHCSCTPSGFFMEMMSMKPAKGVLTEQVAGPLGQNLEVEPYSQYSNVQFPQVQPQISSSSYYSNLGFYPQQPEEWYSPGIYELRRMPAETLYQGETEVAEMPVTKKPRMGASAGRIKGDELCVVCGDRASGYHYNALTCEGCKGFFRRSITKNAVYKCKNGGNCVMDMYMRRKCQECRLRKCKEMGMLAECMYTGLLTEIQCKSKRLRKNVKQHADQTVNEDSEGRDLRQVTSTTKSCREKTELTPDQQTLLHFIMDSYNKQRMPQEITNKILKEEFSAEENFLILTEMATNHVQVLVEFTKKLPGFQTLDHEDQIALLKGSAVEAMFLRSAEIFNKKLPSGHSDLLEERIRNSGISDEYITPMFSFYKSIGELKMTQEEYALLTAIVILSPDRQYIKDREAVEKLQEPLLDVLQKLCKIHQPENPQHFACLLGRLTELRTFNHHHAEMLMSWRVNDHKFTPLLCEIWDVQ
Assay: ATG_IR1_CIS: Attagene CIS-FACTORIAL HepG2 Assay for human Nuclear Receptor Subfamily 1 Group H Member 4 (NR1H4), IR1 submotif (AID 2282946)
Details: IR1 reporter transcription, actives raise or lower the signal
Calls of active or inactive are those of the source. How the source made its calls: active means hit-call score of the fitted dose curve at least 0.9, where 1 is the maximum; inactive means score below 0.9.
Respond with a class label; see active, inactive

Past entries and their recorded results:
Problem: Record lookup: outcome of this test for O=C1c2ccccc2C(=O)N1SC(Cl)(Cl)Cl ?
Solution: inactive

Problem: Record lookup: outcome of this test for COc1cc(OC)nc(NC(=O)NS(=O)(=O)c2cc(NC=O)ccc2C(=O)N(C)C)n1 ?
Solution: inactive

Problem: Record lookup: outcome of this test for COC(=O)c1ccccc1S(=O)(=O)NC(=O)N(C)c1nc(C)nc(OC)n1 ?
Solution: inactive

Problem: Record lookup: outcome of this test for CNC(=O)/C=C(\C)OP(=O)(OC)OC ?
Solution: inactive

Problem: Record lookup: outcome of this test for CCCN(CCC)c1c([N+](=O)[O-])cc(C(F)(F)F)cc1[N+](=O)[O-] ?
Solution: inactive

Problem: Record lookup: outcome of this test for ClC1C(Cl)C(Cl)C(Cl)C(Cl)C1Cl (configuration not stated) ?
Solution: inactive

New cases:
Problem: Record lookup: outcome of this test for CC(C)(C)C(O)/C(=C\c1ccc(Cl)cc1Cl)n1cncn1 (configuration not stated) ?
Solution: inactive

Problem: Record lookup: outcome of this test for CNC(=O)Oc1cccc(N=CN(C)C)c1 ?
Solution: inactive

Problem: Record lookup: outcome of this test for CCc1ccc(C(=O)NN(C(=O)c2cc(C)cc(C)c2)C(C)(C)C)cc1 ?
Solution: inactive
